assay: inhibitors of Cryptococcus chitosan production, flow cytometry, Cibacron Brilliant Red staining (AID 1347148); conditions: Cryptococcus neoformans chitosan, stronger effect = lower value; at 10 µM unless noted;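 also: compound exposure lasted three days at 37 degrees C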
Active and inactive are the calls of the source. No rule for the calls is given here.
VALUE_KIND: fold fluorescence

CC[C@@]1(O)C(=O)OCc2c1cc1n(c2=O)Cc2cc3cc(O)ccc3nc2-1 : 7.95 [at 137.2 µM] (inactive)

I would be grateful if you could share the reported fold fluorescence for `CCCCCCCCCCCCC/C=C/[C@@H](O)[C@H](CO)NC(C)=O` .
5.52 (inactive)

I would be grateful if you could share the reported fold fluorescence for `Oc1cc(O)cc(/C=C/c2ccc(O)c(O)c2)c1` .
4.54 [at 204.7 µM] (inactive)

I would be grateful if you could share the reported fold fluorescence for `CC(C)NC[C@H](O)COc1cccc2ccccc12` .
1.64 [at 192.8 µM] (inactive)

----------
assay: ovarian cancer cell viability with rucaparib, profiling panel, oncology-focused library, rucaparib conditional (AID 1508598); conditions: patient-derived ovarian cancer cells, CellTiter-Glo viability, 144 h; at 1.25 µM; OCI-C5x cells; without rucaparib
Active and inactive are the calls of the source.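 Rule for the calls: active = normalized viability below 100% at a tested concentration; inactive = the rest.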
Hi there, use one of these labels in your reply, thanks! active, inactive

CC(NC(=O)c1ccccc1N=Cc1c(O)ccc2ccccc12)c1ccccc1 (stereo not given) : inactive
CN(C)CCCn1cc(C2=C(c3c[nH]c4ccccc34)C(=O)NC2=O)c2ccccc21 : inactive
O=c1[nH]c(-c2ccc(C(F)(F)F)cc2)nc2c1CSCC2 : active

What was the test verdict on CS(=O)c1ccc(-c2nc(-c3ccc(F)cc3)c(-c3ccncc3)[nH]2)cc1 (stereo not given) ?
inactive

What was the test verdict on `O=c1cc(-c2cccc3c2Sc2ccccc2S3)oc(N2CCOCC2)c1` ?
inactive

----------
assay: differential killing of epithelial or mesenchymal cells, primary screen, imaging, PC-3E GFP, TEM4-18 mCherry, co-culture (AID 1345086); conditions: imaging cell counts, measured here: mesenchymal TEM4-18 mCherry cell survival, at 1 µM;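 also: cells exposed to compound for 72 h before imaging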
Mark rule met for reported normalised cell number of 1 or greater; mark rule not met for anything smaller.

Some solved cases for reference:
C#C[C@]1(OC(C)=O)CCC2C3CCC4=CC(=O)CC[C@@H]4C3CC[C@@]21C (some centres undefined) : rule met
CCC(=O)O[C@H](CC(=O)O)C[N+](C)(C)C : rule met
CCC(=O)OCC(=O)[C@@]1(OC(=O)CC)[C@H](C)CC2C3C([C@@H](O)C[C@@]21C)[C@@]1(C)C=CC(=O)C=C1C[C@H]3Cl (some centres undefined) : rule met

Textbook exercise: given the entry NCC[C@@H](O)C(=O)N[C@@H]1C[C@H](N)[C@@H](O[C@H]2O[C@H](CN)[C@@H](O)[C@H](O)[C@H]2O)[C@H](O)[C@H]1O[C@H]1O[C@H](CO)[C@@H](O)[C@H](N)C1O (some centres undefined) , state whether its normalised cell number is greater than or equal to 1.
rule met

Textbook exercise: given the entry `Nc1ccc2ccccc2c1S(=O)(=O)O` , state whether its normalised cell number is greater than or equal to 1.
rule not met

Textbook exercise: given the entry `C=C(C)n1cc(C(=O)O)c(=O)c2cc(F)c(N3CC[C@@H](CN)C3)c(OC)c21` , state whether its normalised cell number is greater than or equal to 1.
rule met

Textbook exercise: given the entry CC(CC(=O)N1C(=S)SC[C@@H]1c1ccccc1)N1C(=S)SC[C@@H]1c1ccccc1 (some centres undefined) , state whether its normalised cell number is greater than or equal to 1.
rule met

Textbook exercise: given the entry `C=C(C)[C@H]1CC=C(C(=O)O)CC1` , state whether its normalised cell number is greater than or equal to 1.
rule not met
